Sourced from patent US9663528B2

# measurement notes: in vitro
# conditions used: human, CC50 nM in MT-4
# Protocol: For the antiviral assay utilizing MT4 cells, 0.4 μL of […] test concentration of 3-fold serially diluted compound in DMSO was added to 40 μL of cell growth medium (RPMI 1640, 10% FBS, 1% penicilline/Streptomycine, 1% L-Glutamine, 1% HEPES) in each well of 384-well assay plates (10 concentrations) in quidruplicate. […]
Hi! Could you tag entries with CC50 at 5 days below 8000 nM as Criterion met, and those at or above as Criterion not met? Much appreciated.

A selection of reference data follows.
compound	cat
O=C(NCc1ncc(F)cc1F)c1cn2c(c(O)c1=O)C(=O)N1[C@H]3CC[C@H](C3)[C@@H]1C2	Criterion not met
O=C(NCc1c(F)cc(F)cc1F)c1cn2c(c(O)c1=O)C(=O)N1[C@H]3CC[C@H](C3)[C@@H]1C2	Criterion not met
Cc1cccc(CNC(=O)c2cn3c(c(O)c2=O)C(=O)N2[C@H]4CC[C@H](C4)[C@@H]2C3)c1F	Criterion not met
O=C(NCc1cc(F)c(F)cc1F)c1cn2c(c(O)c1=O)C(=O)N1[C@H]3CC[C@H](C3)O[C@@H]1C2	Criterion met
O=C(N[C@@H](c1ccc(F)cc1F)C(F)(F)F)c1cn2c(c(O)c1=O)C(=O)N1C(C2)O[C@@H]2CC[C@H]1C2 (some centres unmarked)	Criterion met

Is CC50 at 5 days of O=C(NCc1ccc(F)cc1F)c1cn2c(c(O)c1=O)C(=O)N1C(C2)[C@H]2CC[C@@H]1C2 (stereo in doubt) [Compound 38] strictly below 8000 nM? Criterion not met

Now consider C[C@H](NC(=O)c1cn2c(c(O)c1=O)C(=O)N1[C@@H]3CC[C@@H](C3)O[C@H]1C2)c1ccc(F)cc1F . Criterion not met

Now consider C[C@@H](NC(=O)c1cn2c(c(O)c1=O)C(=O)N1[C@@H]3CC[C@@H](C3)O[C@H]1C2)c1ccc(F)cc1F . Criterion not met

Now consider O=C(NCc1ccc(F)c(Cl)c1F)c1cn2c(c(O)c1=O)C(=O)N1[C@@H]3C[C@H]([C@@H]1C2)C(F)(F)C3 . Criterion met

Now consider O=C(NCc1c(F)cc(F)cc1F)c1cn2c(c(O)c1=O)C(=O)N1[C@@H]3C[C@@H]([C@H](F)C3)[C@@H]1C2 . Criterion not met

Now consider C[C@@H](NC(=O)c1cn2c(c(O)c1=O)C(=O)N1[C@@H]3CC[C@H](C3)O[C@@H]1C2)c1c(F)cc(F)cc1F . Criterion met

====

# assay target: UniProt O75469
# Sequence (O75469 whole entry): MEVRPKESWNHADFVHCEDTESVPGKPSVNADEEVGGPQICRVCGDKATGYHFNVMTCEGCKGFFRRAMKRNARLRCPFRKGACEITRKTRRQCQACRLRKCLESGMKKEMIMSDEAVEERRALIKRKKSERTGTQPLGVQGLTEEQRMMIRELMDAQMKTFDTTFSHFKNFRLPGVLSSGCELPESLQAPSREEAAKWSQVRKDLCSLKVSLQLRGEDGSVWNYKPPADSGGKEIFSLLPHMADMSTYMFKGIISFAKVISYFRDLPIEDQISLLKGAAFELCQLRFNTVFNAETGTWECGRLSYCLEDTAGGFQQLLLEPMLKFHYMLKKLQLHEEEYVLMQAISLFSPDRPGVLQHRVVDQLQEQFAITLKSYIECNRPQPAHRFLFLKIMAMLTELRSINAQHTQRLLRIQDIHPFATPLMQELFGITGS
# measurement notes: Human PXR activation assay (luciferase reporter gene assay, DPX2 cells)
# Type: cell-based
# conditions used: human
Listing of recorded Emax at 24 h, 15 µM by entry.
Just the number please, in %, no unit attached.

molecule	unit	Emax at 24 h, 15 µM
O=C(NCc1cc(F)c(F)cc1F)c1cn2c(c(O)c1=O)C(=O)N1[C@H]3CC[C@H](C3)O[C@@H]1C2	%	8
O=C(NCc1c(F)cccc1F)c1cn2c(c(O)c1=O)C(=O)N1[C@@H]3CC[C@@H](C3)O[C@H]1C2	%	34
C[C@@H](NC(=O)c1cn2c(c(O)c1=O)C(=O)N1[C@H]3CC[C@H](C3)[C@@H]1C2)c1ccc(F)cc1F	%	18
O=C(NCc1cccc(Cl)c1F)c1cn2c(c(O)c1=O)C(=O)N1[C@H]3CC[C@H](C3)[C@@H]1C2	%	11

Consider the molecule O=C(NCc1ccc(F)cc1F)c1cn2c(c(O)c1=O)C(=O)N1C(C2)[N@@]2CC[C@@H]1C2 (some centres unmarked) and give its measured Emax at 24 h, 15 µM. 3

Now consider O=C(NCc1c(F)cc(F)cc1F)c1cn2c(c(O)c1=O)C(=O)N1[C@@H](C2)[C@H]2C[C@@H]1C(F)(F)C2 . 0

Now consider O=C(NCc1ccc(F)cc1F)c1cn2c(c(O)c1=O)C(=O)N1C(C2)[N@]2CCC[C@H]1C2 (some centres unmarked) . 2

Now consider O=C(NCc1c(F)cc(F)cc1F)c1cn2c(c(O)c1=O)C(=O)N1[C@H](C2)[C@H]2C[C@@H]1C(F)(F)C2 . 1

Now consider O=C(NCc1ccc(F)cc1F)c1cn2c(c(O)c1=O)C(=O)N1[C@H]3CC[C@H](C3)O[C@@H]1C2 . 4.5

Now consider O=C(NCc1ccc(F)cc1F)c1cn2c(c(O)c1=O)C(=O)N1C(C2)O[C@H]2CCC[C@@H]1C2 (some centres unmarked) . 6

Now consider O=C(NCc1cccc(Cl)c1)c1cn2c(c(O)c1=O)C(=O)N1[C@H]3CC[C@H](C3)[C@@H]1C2 . 4
